Test: Bioequivalence test
Details: human, in vivo, 225 mg/day
EXPERIMENTAL ENDPOINT: Cmax (ng/mL)

COMPOUND	EXPERIMENTAL VALUE
CN(C)CC(c1ccc(O)cc1)C1(O)CCCCC1 (stereo not shown) [ODV, O-desmethylvenlafaxine]	392

---

Test: Bioequivalence test
Details: human, in vivo, 225 mg/day
EXPERIMENTAL ENDPOINT: AUC

MOLECULE	EXPERIMENTAL VALUE
COc1ccc(C(CN(C)C)C2(O)CCCCC2)cc1 (centres unmarked) [VEN, Venlafaxine]	2410 ng·h/mL
CN(C)CC(c1ccc(O)cc1)C1(O)CCCCC1 (centres unmarked) [ODV, O-desmethylvenlafaxine]	8080 ng·h/mL

---

Experiment: Bioequivalence test
Details: human, in vivo, 70 mg/day

MOL	Cmax
C[C@H](N)Cc1ccccc1	85.9 ng/mL
